What S/N was measured for each of the following?
Target: T1, hVEGF-A (8-109) (human, UniProt P15692 214-315)
T1 construct: residue numbers count on mature VEGF-A; dimer
T1 sequence (looked up): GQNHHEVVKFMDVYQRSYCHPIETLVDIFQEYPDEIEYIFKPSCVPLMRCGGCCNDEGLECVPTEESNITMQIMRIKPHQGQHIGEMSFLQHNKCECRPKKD
Experiment: spot phage ELISA

Problem: Consider the binder shown here: GCDRMQPYWGCKQDSDCLAGCVCQWYKSCG (designed binder) [VEGF_CKP9.11] What is its recorded S/N?
Solution: 14.1

Problem: Would you kindly share the measured S/N for GCNIMLPFWGCGYDLQCLAGCVCQYYQSCG (designed binder) [VEGF_CKP9.54.87] ?
Solution: 26.1

Problem: Look up S/N: GCNIMLPFWGCSRDFDCLAGCVCQYYQSCG (designed binder) [VEGF_CKP9.54.44]
Solution: 34.4
